system: Candida albicans NBRC1270; test: In vitro anti-Candida activity test; format: cell-based; details: Table 24, 35° C. for 24 hr, 80% or more inhibition, unit inferred
property_measured: C. albicans (MIC) (ng/mL)

CC(C)ON=Cc1cnc(C2CSC(=C(C#N)n3cncn3)S2)c(Cl)c1 (racemic) ... 2.5
CC1CC1COC(=O)Nc1cnc(C2CS/C(=C(/C#N)n3cncn3)S2)c(Cl)c1 (racemic) ... 1.25
N#C/C(=C1/SC[C@@H](c2ncc(NC(=O)OCC3CC3(F)F)cc2F)S1)n1cncn1 (stereo partly drawn) ... 10

(a) N#CC(=C1SCC(c2ncc(C=NOCC3CC3)cc2F)S1)n1cncn1 (racemic)
(b) N#C/C(=C1/SCC(c2ncc(NC(=O)OCc3ccnc(F)c3)cc2Cl)S1)n1cncn1 (racemic)
Prompt line: Smaller C. albicans (MIC) value? Options are a and b Your choice should be expressed through its label.
Response line: a

(1) N#C/C(=C1/SC[C@@H](c2ncc(NC(=O)OCC3CC3(F)F)cc2Cl)S1)n1cncn1 (stereo partly drawn)
(2) N#C/C(=C1/SCC(c2ncc(NC(=O)OCC3CC3(F)F)cc2F)S1)n1cncn1 (racemic)
Prompt line: Looking at recorded values for C. albicans (MIC), does 1 or 2 come in lower? State the label of the item chosen.
Response line: 1
(1: 2.5 ng/mL, 2: 10 ng/mL)

###

System: Candida albicans NBRC1270
Assay: In vitro anti-Candida activity test
Format: cell-based
Settings: Table 24, 35° C. for 24 hr, 80% or more inhibition, unit inferred
Description: Candida albicans NBRC1270 was used as the strain. The test fungi were cultured on a Sabouraud dextrose agar slant medium at 35° C. for 24 hr, and then suspended in sterilized saline. The number of cells in this suspension was counted using a hemocytometer, and the same suspension was adjusted to a cell concentration of 1.5×10^5 cells/mL, and this was used as an inoculum. […]
property_measured: C. albicans (MIC) (ng/mL)

The examples below pair each entry with its known result.
N#C/C(=C1/SCC(c2ncc(NC(=O)OCc3ccncc3F)cc2Cl)S1)n1cncn1 (racemic) [compound 114] ... 10
CCCON=Cc1cnc(C2CSC(=C(C#N)n3cncn3)S2)c(Cl)c1 (racemic) [compound 141] ... 2.5

(1) N#CC(=C1SCC(c2ncc(C=NOCC3CC3)cc2Cl)S1)n1cncn1 (racemic) [compound 139]
(2) CCCON=Cc1cnc(C2CSC(=C(C#N)n3cncn3)S2)c(F)c1 (racemic) [compound 144]
(3) CC(C)CON=Cc1cnc(C2CSC(=C(C#N)n3cncn3)S2)c(Cl)c1 (racemic) [compound 143]
Prompt line: Arrange the 3 compounds by rising C. albicans (MIC), starting with the smallest. Output the labels ranked as instructed.
Response line: 1, 3, 2
(1: 1.25 ng/mL, 3: 2.5 ng/mL, 2: 10 ng/mL)
